# credit: patent US20090264415A2

System: production of human TNF-α by PBMC in response to LPS
Test: TNF-α assay (LPS-stimulated PBMC, sandwich ELISA)
Type: cell-based
Details: Homo sapiens, PBMC; LPS 1 μg/ml, 72 hours; read-out: TNF α
Source text: Peripheral blood mononuclear cells (herein referred as PBMC), in response to stimulation by lipopolysaccharide (hereinafter LPS), a gram-negative bacterial endotoxin, produce various […], in particular human TNF-α. Inhibition of the activation of PBMC can therefore be measured by the level of suppression of the production of TNF-α by PBMC in response to stimulation by LPS. […]
READOUT TYPE: IC50 (nM)
Number only, in nM; omit the unit.

For COc1ccc(-c2ccc3nc(N)nc(Nc4cccc(Br)c4)c3n2)cc1OC the compound record lists IC50 as 800

---

Measured IC50, listed per entry.
system: production of human TNF-α by PBMC in response to LPS; experiment: TNF-α assay (LPS-stimulated PBMC, sandwich ELISA); format: cell-based; details: LPS 1 μg/ml, 72 hours; read-out: TNF α
Number only, in nM; omit the unit.

MOLECULE	REPORTED RESULT
COc1cc(-c2ccc3nc(N)nc(N4CCOCC4)c3n2)ccc1OC(C)C [Example 99]	1000
COc1ccc(-c2ccc3nc(N)nc(N4CCN(C(=O)Nc5ccc(F)c(Cl)c5)CC4)c3n2)cc1OC [Example 57]	300
COc1ccc(-c2ccc3nc(C)nc(N4CCN(C(=O)Nc5cccc(C)c5)CC4)c3n2)cc1OC [Example 11]	500

Field: next molecule
production of human TNF-α by PBMC in response to LPS data for COc1ccc(-c2ccc3nc(N)nc(Nc4ccc5c(c4)OCO5)c3n2)cc1OC [Example 28] ; its IC50: 800

---

READOUT TYPE: melting point (°C)
Number only, in °C; omit the unit.

COMPOUND	melting point [°C]
CCCOc1nc(NC(C)=O)nc2ccc(Cl)nc12	191
CCC(C)Oc1nc(N)nc2ccc(-c3ccc(F)cc3)nc12 (stereo not drawn)	148
CCOc1nc(N)nc2ccc(-c3cccc(F)c3)nc12	174
CCCCOc1nc(NC(C)=O)nc2ccc(-c3ccc(F)cc3)nc12	170
CC(C)COc1nc(N)nc2ccc(-c3cccc(F)c3)nc12	185
CC(C)COc1nc(N)nc2ccc(-c3ccccc3F)nc12	165
CCC(C)Oc1nc(N)nc2ccc(-c3ccccc3F)nc12 (stereo not drawn)	159

For CC(=O)Nc1nc(OC(C)C)c2nc(Cl)ccc2n1 the compound record lists melting point as 244

---

System: production of human TNF-α by PBMC in response to LPS
Assay: TNF-α assay (LPS-stimulated PBMC, sandwich ELISA)
Type: cell-based
Conditions: LPS 1 μg/ml, 72 hours; read-out: TNF α
Excerpt: Peripheral blood mononuclear cells (herein referred as PBMC), in response to stimulation by lipopolysaccharide (hereinafter LPS), a gram-negative bacterial endotoxin, produce various […], in particular human TNF-α. Inhibition of the activation of PBMC can therefore be measured by the level of suppression of the production of TNF-α by PBMC in response to stimulation by LPS. […]
Measured IC50, listed per entry.
Field note: include the unit after the figure.

COMPOUND	IC50
COc1ccc(-c2ccc3ncnc(N4CCN(c5ccc(C)cc5)CC4)c3n2)cc1OC	90 nM
COc1ccc(-c2ccc3nc(N)nc(N4CCN(Cc5ccccc5)CC4)c3n2)cc1OC	460 nM
COc1cc(-c2ccc3nc(N)nc(N4CCNCC4)c3n2)ccc1O	2400 nM
COc1ccc(-c2ccc3nc(OC(C)CN4CCCC4)nc(N4CCN(C(=O)Nc5cccc(C)c5)CC4)c3n2)cc1OC (centres unmarked)	5200 nM
COc1ccc(-c2ccc3nc(N)nc(N4CCN(CC(=O)Nc5nccs5)CC4)c3n2)cc1OC	60 nM
Nc1nc(N2CCOCC2)c2nc(-c3ccc4c(c3)OCCO4)ccc2n1	900 nM
COc1ccc(-c2ccc3nc(N)nc(N4CCN(C(=O)Nc5ccsc5)CC4)c3n2)cc1OC	50 nM
COc1ccc(-c2ccc3nc(N)nc(N4CCN(C(=O)Nc5ccc(F)cc5)CC4)c3n2)cc1OC	70 nM

For COc1ccc(-c2ccc3ncnc(N4CCN(CCOc5ccccc5)CC4)c3n2)cc1OC the compound record lists IC50 as 650 nM

For CCOc1ccc(-c2ccc3nc(N)nc(N4CCOCC4)c3n2)cc1OC the compound record lists IC50 as 300 nM

For COc1ccc(-c2ccc3ncnc(N4CCNCC4)c3n2)cc1OC the compound record lists IC50 as 2700 nM

For COc1nc(N2CCN(C(=O)Nc3cccc(C)c3)CC2)c2nc(-c3ccc(OC)c(OC)c3)ccc2n1 the compound record lists IC50 as 500 nM

For COc1ccc(-c2ccc3nc(N)nc(SC)c3n2)cc1OC the compound record lists IC50 as 800 nM

For COc1cc(-c2ccc3nc(N)nc(N4CCN(C(=O)Nc5ccc(F)cc5)CC4)c3n2)ccc1O the compound record lists IC50 as 600 nM

For COc1ccc(-c2ccc3nc(N)nc(N4CCN(C(C)=O)CC4)c3n2)cc1OC the compound record lists IC50 as 40 nM

For COc1cc(-c2ccc3nc(N)nc(N4CCOCC4)c3n2)ccc1O the compound record lists IC50 as 600 nM

For COc1ccc(-c2ccc3nc(N)nc(N4CCN(Cc5ccc6c(c5)OCO6)CC4)c3n2)cc1OC the compound record lists IC50 as 8500 nM
